# credit: the supplement of paper PMC10567573

B1: BCL2L13 (parent)
chain: YIIQQGGWGTVFSLESEEEEYPGI

variants of: B1; experiment: protein stability index of a GFP-peptide fusion (GPS, HEK-293T) (PSI 1-6); higher = more stable; settings: c terminus: a fixed tail appended;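 further: lentivirally expressed fusions sorted by FACS into six bins by GFP to DsRed ratio, PSI derived from sequencing read proportions per bin multiplied by bin number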
ENDPOINT LABEL: protein stability index
Answers are plain numbers.

{"SEQUENCE ENTRY": "YIIHQGGWGTVFSLESEEEEYPGI [Q4H]", "protein stability index": 1.2}
{"SEQUENCE ENTRY": "LIIQQGGWGTVFSLESEEEEYPGI [Y1L]", "protein stability index": 1.87}
{"SEQUENCE ENTRY": "YIIQQGGWQTVFSLESEEEEYPGI [G9Q]", "protein stability index": 1.81}
{"SEQUENCE ENTRY": "YKIQQGGWGTVFSLESEEEEYPGI [I2K]", "protein stability index": 3.31}
{"SEQUENCE ENTRY": "YIIQQGNWGTVFSLESEEEEYPGI [G7N]", "protein stability index": 1.05}

// batch mode: one protein stability index value per listed entry
1. YIIQQGGWGTDFSLESEEEEYPGI [V11D]
2. YIIQQGTWGTVFSLESEEEEYPGI [G7T]
3. YIIQQGGWHTVFSLESEEEEYPGI [G9H]

Completion:
1. 2.67
2. 1.45
3. 1.42

// batch mode: one protein stability index value per listed entry
1. YIIQQGGWGTVFSYESEEEEYPGI [L14Y]
2. YIIQQGGWGTVFSLENEEEEYPGI [S16N]
3. YIIQQGGWGTVFSLESEHEEYPGI [E18H]
4. YIIQQGGWGTAFSLESEEEEYPGI [V11A]
5. YIIQQGHWGTVFSLESEEEEYPGI [G7H]
6. YIIVQGGWGTVFSLESEEEEYPGI [Q4V]
7. YIIQQGGWGTVFSLESEEEEYPRI [G23R]
8. YIIQQGGWGTVFSLESEEEDYPGI [E20D]

Completion:
1.84
1.83
1.85
2.12
2.14
3.01
1.28
1.71

// batch mode: one protein stability index value per listed entry
1. YIIQQGGWGTVFSLESEEEEYPGK [I24K]
2. YIIQQGGWGTVFSLESEEEAYPGI [E20A]
3. YIIQQGGWGTVFSLESEEEGYPGI [E20G]
4. YIIQQGGAGTVFSLESEEEEYPGI [W8A]
5. YIIQQGDWGTVFSLESEEEEYPGI [G7D]
6. YIIQQGGWGTVFSLESEEENYPGI [E20N]
7. KIIQQGGWGTVFSLESEEEEYPGI [Y1K]
8. YIIQQGGWGTVFSLESEEHEYPGI [E19H]

Completion:
1.75
1.13
1.51
2.02
1.87
2.17
3.39
2.29

// batch mode: one protein stability index value per listed entry
1. YIIQQVGWGTVFSLESEEEEYPGI [G6V]
2. YIIQQGGWGTVFSLESEEEEDPGI [Y21D]
3. YIIQQGPWGTVFSLESEEEEYPGI [G7P]
4. YIIQQGGWGTVFSLESEEEEYQGI [P22Q]

Completion:
1.23
2.22
1.58
1.47
